Biological target: T1, hEva1-mouse Fc (human, UniProt O60487 27-154, limits assumed)
T1 construct: SPR analyte; the '1' is probably the first concentration (1 nM); also called hEva1-mouse Fc1 (so in the source); not shown: mouse Fc
T1 sequence: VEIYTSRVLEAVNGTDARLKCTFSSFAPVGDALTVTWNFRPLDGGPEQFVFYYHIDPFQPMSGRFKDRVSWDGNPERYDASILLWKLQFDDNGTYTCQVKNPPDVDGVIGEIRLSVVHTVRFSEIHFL
Test: SPR (BiaCore T200), single-cycle kinetics; antibody captured by anti-human IgG on CM5 chip, hEva1-mouse Fc as analyte
Field: label. Allowed values: yes (1) (koff < 0.01 s⁻¹) or no (0) (koff >= 0.01 s⁻¹).

binder	category.label
humanized B2E5-48 antibody H3-L3 (antibody, human IgG1, V domains shown, Human IgG1 heavy chain and human kappa light chain vectors; made in HEK293T cells) VH: QVQLVQSGSELKKPGASVKVSCKASGYTFTNYWMHWVRQAPGQGLEWIGEINPTNGGTDYNEGFTGRFVLSVDKSSSTAYLQISSLKAEDTAVYYCTIYTTALDYWGQGTLVTVSS VL: QIQLTQSPSFLSASVGDRVTITCRASSSVGYMYWYQQKPGKAPKPLIYVTSNLASGVPSRFSGSGSGTEYTLTISSLQPEDFATYYCQQWSSNPPTFGQGTKLEIK	no (0)
humanized B2E5-48 antibody H2-L4 (antibody, human IgG1, V domains shown, Human IgG1 heavy chain and human kappa light chain vectors; made in HEK293T cells) VH: QVQLVQSGAEVKKPGASVKVSCKASGYTFTNYWMHWVRQAPGQGLEWMGEINPTNGGTDYNEKFQGRVTMTVDKSTSTAYMELSSLRSEDTAVYYCTIYTTALDYWGQGTLVTVSS VL: DIQLTQSPSFLSASVGDRVTITCRASSSVGYMYWYQQKPGKAPKPLIYVTSNLASGVPSRFSGSGSGTEYTLTISSLQPEDFATYYCQQWSSNPPTFGQGTKLEIK	yes (1)
humanized B2E5-48 antibody H4-L4 (antibody, human IgG1, V domains shown, Human IgG1 heavy chain and human kappa light chain vectors; made in HEK293T cells) VH: QVQLVQSGSELKKPGASVKVSCKASGYTFTNYWMHWVRQAPGQGLEWMGEINPTNGGTDYNEGFTGRFVFSVDKSVSTAYLQISSLKAEDTAVYYCTIYTTALDYWGQGTLVTVSS VL: DIQLTQSPSFLSASVGDRVTITCRASSSVGYMYWYQQKPGKAPKPLIYVTSNLASGVPSRFSGSGSGTEYTLTISSLQPEDFATYYCQQWSSNPPTFGQGTKLEIK	no (0)
humanized B2E5-48 antibody H2-L3 (antibody, human IgG1, V domains shown, Human IgG1 heavy chain and human kappa light chain vectors; made in HEK293T cells) VH: QVQLVQSGAEVKKPGASVKVSCKASGYTFTNYWMHWVRQAPGQGLEWMGEINPTNGGTDYNEKFQGRVTMTVDKSTSTAYMELSSLRSEDTAVYYCTIYTTALDYWGQGTLVTVSS VL: QIQLTQSPSFLSASVGDRVTITCRASSSVGYMYWYQQKPGKAPKPLIYVTSNLASGVPSRFSGSGSGTEYTLTISSLQPEDFATYYCQQWSSNPPTFGQGTKLEIK	yes (1)
humanized B2E5-48 antibody H4-L3 (antibody, human IgG1, V domains shown, Human IgG1 heavy chain and human kappa light chain vectors; made in HEK293T cells) VH: QVQLVQSGSELKKPGASVKVSCKASGYTFTNYWMHWVRQAPGQGLEWMGEINPTNGGTDYNEGFTGRFVFSVDKSVSTAYLQISSLKAEDTAVYYCTIYTTALDYWGQGTLVTVSS VL: QIQLTQSPSFLSASVGDRVTITCRASSSVGYMYWYQQKPGKAPKPLIYVTSNLASGVPSRFSGSGSGTEYTLTISSLQPEDFATYYCQQWSSNPPTFGQGTKLEIK	no (0)
